- STUDY_SYSTEM: Hexokinase HKDC1 [W721R] (Homo sapiens, UniProt Q2TB90, W721R)
- Sequence (Q2TB90 whole entry W721R): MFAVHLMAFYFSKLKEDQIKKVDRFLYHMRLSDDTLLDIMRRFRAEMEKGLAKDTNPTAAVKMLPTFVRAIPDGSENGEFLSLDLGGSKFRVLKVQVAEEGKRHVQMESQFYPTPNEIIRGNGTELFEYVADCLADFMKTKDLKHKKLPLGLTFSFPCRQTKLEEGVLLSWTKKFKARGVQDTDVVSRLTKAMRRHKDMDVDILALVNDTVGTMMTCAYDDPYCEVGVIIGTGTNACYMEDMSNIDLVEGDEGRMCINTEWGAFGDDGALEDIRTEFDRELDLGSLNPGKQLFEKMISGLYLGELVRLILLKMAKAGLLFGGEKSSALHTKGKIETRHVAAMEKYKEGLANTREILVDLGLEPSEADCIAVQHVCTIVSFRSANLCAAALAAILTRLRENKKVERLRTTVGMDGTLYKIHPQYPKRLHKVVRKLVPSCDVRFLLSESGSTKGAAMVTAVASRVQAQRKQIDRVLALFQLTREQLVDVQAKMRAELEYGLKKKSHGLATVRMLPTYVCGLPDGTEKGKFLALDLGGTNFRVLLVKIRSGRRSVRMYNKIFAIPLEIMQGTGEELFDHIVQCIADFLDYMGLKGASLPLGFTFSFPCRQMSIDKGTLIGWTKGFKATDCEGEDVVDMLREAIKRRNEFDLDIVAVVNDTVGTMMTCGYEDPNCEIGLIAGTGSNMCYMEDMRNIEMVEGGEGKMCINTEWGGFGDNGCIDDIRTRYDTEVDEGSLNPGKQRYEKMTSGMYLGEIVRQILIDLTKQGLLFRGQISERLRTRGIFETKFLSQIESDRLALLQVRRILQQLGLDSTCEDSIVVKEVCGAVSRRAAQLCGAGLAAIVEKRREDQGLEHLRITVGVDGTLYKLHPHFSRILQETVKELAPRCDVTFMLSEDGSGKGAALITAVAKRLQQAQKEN
- EXPERIMENTAL_PROTOCOL: HKDC1 hexokinase inhibitors, dose response, biochemical, W721R variant (AID 504729)
Kindly supply the reported IC50 values for the records listed here.

Enquiry: Need IC50 of Oc1ccc(CN=Nc2ncc(Br)cn2)c(O)c1 , thanks.
Return: 1.68 µM

Enquiry: Need IC50 of COC1=CC(/C=C(\C#N)c2nc3ccc(C)cc3[nH]2)C=C([N+](=O)[O-])C1=O (centres undefined) , thanks.
Return: 16.1 µM

Enquiry: Need IC50 of N#CC(C(=O)CCl)c1nc2c(s1)CCc1ccccc1-2 (centres undefined) , thanks.
Return: 17.4 µM

Enquiry: Need IC50 of COc1ccc(Cn2c(O)c3[nH]cccc-3c2=O)cc1 , thanks.
Return: 21.5 µM

* * *

- STUDY_SYSTEM: Hexokinase HKDC1 [W721R] (Homo sapiens, UniProt Q2TB90, W721R)
- EXPERIMENTAL_PROTOCOL: HKDC1 hexokinase inhibitors, dose response, biochemical, W721R variant (AID 504729)
// assign yes (1) if IC50 falls strictly below 8 µM, else no (0) (ties count as no (0))

Enquiry: Check if IC50 falls below 8 µM for Cc1cccc2c1=NC(=O)C=2NNC(=O)c1ccc(NS(=O)(=O)c2cccs2)cc1 [SMR001246714] .
Return: no (0)

Enquiry: Check if IC50 falls below 8 µM for CC(Nc1cc(O)c2cccnc2c1O)C(=O)c1ccccc1 (centres undefined) .
Return: no (0)

Enquiry: Check if IC50 falls below 8 µM for Cc1ccc(Nc2c3[nH]cccc-3c(=O)n2-c2ccccc2C)cc1C [SMR000028201] .
Return: no (0)

Enquiry: Check if IC50 falls below 8 µM for Cc1[nH]c2c(=O)c3c(c(=O)c=2[nH]c1C)C1C=CC3CC1 [MLS002701599] .
Return: yes (1)

Enquiry: Check if IC50 falls below 8 µM for O=C1C=CC(CN=Nc2ccc([N+](=O)[O-])cn2)C(O)=C1 (centres undefined) [SMR001527138] .
Return: yes (1)

Enquiry: Check if IC50 falls below 8 µM for Cc1ccc(/N=C/C2=CC(Cc3ccccc3Cl)C=C([N+](=O)[O-])C2=O)c(O)c1 (centres undefined) .
Return: no (0)

Enquiry: Check if IC50 falls below 8 µM for O=C(/C=C/c1ccco1)NCC(=O)NNC1=c2ccccc2=NC1=O [MLS001075666] .
Return: no (0)

Enquiry: Check if IC50 falls below 8 µM for C=c1c(NC(C)=O)c(O)c2nc3n(c2c1O)CCC=3OC(=O)COC [SMR001565176] .
Return: yes (1)
